assay: yeast display, Sf9 membrane polyspecificity reagent, FACS + sequencing; frameworks hold sequencing errors
Quantity name: polyreactivity (PSR sort gate)

[
  {
    "Biosequence": "QVQLVESGGGLVQAGGSLRLSCAASGSIFTRYAMGWYRQAPGKERELVAAISSGGSTYYADSVKGRFTISRDNAKNTVYLQMNSLKPEDTAVYYCAKDSGSYRVGIYEPFPYGYWGQGTQVTVSS",
    "Measured": "low polyreactivity"
  },
  {
    "Biosequence": "QVQLVESGGGLVQAGGSLRLSCAASGSTFPSYAMGWYRQAPGKERELVAAINSGGGTNYADSVKGRFTISRDNAKNTVYLQINSLKPEDTAVFYCAKSRYDYTKTEGVYWGQGTQVTVSS",
    "Measured": "low polyreactivity"
  }
]

---

experiment: yeast display, Sf9 membrane polyspecificity reagent, FACS + sequencing; frameworks hold sequencing errors
Quantity name: polyreactivity (PSR sort gate)

[
  {
    "Biosequence": "QVQLVESGGGLVQAGGSLRLSGAASGLIFSRYAMGWYRQAPGKVRELVAAITSGTSTYDADSVKGRFTISRDNAKNTVYKQMNSLKPEDTAGYYCAARWWTYNARDYPDYYWGQGTQVTVSS",
    "Measured": "high polyreactivity"
  },
  {
    "Biosequence": "QVQRVESGGGLVQAGGSLRLSCAASGSIFRFYAMGWYRQARGKERELVAAITSGGSTNYADSVKGRFTISRDNAKNTVFLQMKSLKPEDTAVYYFNAGLFYKPQYGYWGQGTQVTVSS",
    "Measured": "high polyreactivity"
  }
]

---

test: yeast display, Sf9 membrane polyspecificity reagent, FACS + sequencing; frameworks hold sequencing errors
Quantity name: polyreactivity (PSR sort gate)

[
  {
    "Biosequence": "QVQLVESGGGLVQAGGSLRLSCAASGIIFTYYAMGWYRQAPGKEREFVAAISNGGSNTRYADSVKGRFTISRDNAKNTVYLQMNSLKPEDTAVYYCAARAYQHYNWGQGTQVTVSS",
    "Measured": "high polyreactivity"
  },
  {
    "Biosequence": "QVQLVESGGGLVQAGGSLRLSCAASGRTFYVNAMGWYRQAPGKERELVAAISRSGRTNYADSVKGRFTISRDNAKNTVYLQMNSLKPEDTAVYYCAAALSNVRNVRSPYDYWGQGTQVTVSS",
    "Measured": "high polyreactivity"
  },
  {
    "Biosequence": "QVQLVESGGGLVQAGGSLRLSCAASGITFYGNAMGWYRQAPGKERELVAAITASGGRTYYADSVKGRFTISRDNAKNTVYLQMNSLKPEDTAVYYCAAKKATVVYRMEYWGQGTQVTVSS",
    "Measured": "high polyreactivity"
  },
  {
    "Biosequence": "QVQLVESGGGLVQAGGSLRLSCAASGFTFRYYAMGWSRQAPGKERELLAAITGRGGSTYYADSVKGRFTISRDNAKNTVYFQMNSLNPEDTAVSFCAARFTRVYAQVRNDYWGQGTQVTVSS",
    "Measured": "high polyreactivity"
  }
]

---

experiment: yeast display, Sf9 membrane polyspecificity reagent, FACS + sequencing; frameworks hold sequencing errors
Quantity name: polyreactivity (PSR sort gate)

[
  {
    "Biosequence": "QGQLVESGGGLVQAGASLRLSCAASGFIFAHYTMGWYRQAPGKARELVAAITRAGGSTFYADSVKGRFTISRDNAKNTVYLQRNSLKPEDTAVYYCNRGNRWNFDSWGQGTQVTVSS",
    "Measured": "high polyreactivity"
  },
  {
    "Biosequence": "QVQLVESGGGLVQAGGSLRLICAASGSTFNGYVMGWYRKAPGKERELVAAISRSGGSTYYADSVKGRFTNSRDNAKNTVYLQMNSLKPEDTAVYDCAAAPPLAGLGGYYWGQGTQVTVSS",
    "Measured": "high polyreactivity"
  }
]

---

assay: yeast display, Sf9 membrane polyspecificity reagent, FACS + sequencing; frameworks hold sequencing errors
Quantity name: polyreactivity (PSR sort gate)

[
  {
    "Biosequence": "QVQLVESGGGLVQAGGSLRLSCAASGSTLYVYTMGWYRQAPGKERELVATINTSGSRTYYADSLKGRFTISRDIAKNTVYLQMNSLKPEDTAVYYCNARSSRWFYGYNYWGQGTQVTVSS",
    "Quantity name": "polyreactivity (PSR sort gate)",
    "Measured": "high polyreactivity"
  },
  {
    "Biosequence": "QVQLVESGGGLVQAGGSLRLSCAASGIIFDYYAMGWYRQAPGKVREFVATITSGGSTTYADSVKGRFTISRDNAKNTVYIEMNSLKPEDTAVYYCAARTYWFPDIYPGLGRDYWGQGTQVTVSS",
    "Quantity name": "polyreactivity (PSR sort gate)",
    "Measured": "low polyreactivity"
  },
  {
    "Biosequence": "QVQLVESGGGLVQAGGSLRLSCAASGFIFRYNAMGWYRQAPGKERELVAAISSGGSTNYADSVKGRFTISRDNAKNTVYLQMNSLKPEDTAVYYCAADVEQYYPLLTFDFWGQGTQVTVSS",
    "Quantity name": "polyreactivity (PSR sort gate)",
    "Measured": "low polyreactivity"
  },
  {
    "Biosequence": "QVQLVESGGGLVQAGGSLRLSCAASGRSIRIYAMGWYRQAPGKERELVAAIRWSGGTTYYADSVKGRFTISRDNAKNTVYLQMNSLKPEDTAVYYCAADSTNRYDYWGQGTQVTVSS",
    "Quantity name": "polyreactivity (PSR sort gate)",
    "Measured": "high polyreactivity"
  },
  {
    "Biosequence": "QVQLVESGGGLVQAGGSLRLSCAASGFTVSYNTMGWYRQAPGKERELVAAISARGTSTYYADSVKGRFTISRDNAKNTVYLQMNSLKPEDTAVYYCAAAYRIGSGYWGQGTQVTVSS",
    "Quantity name": "polyreactivity (PSR sort gate)",
    "Measured": "high polyreactivity"
  },
  {
    "Biosequence": "QVQLVESGGGLVQAGGSLRLSCAASGSTIYDNAMGWYRQAPGKERELVAAITWSVGRTYYADSVKGRFTISRDNAKNTVYLQMNSLKPEDTAVYYCAARSQDRSYFQVFVSDTPYNYWGQGTQVTVSS",
    "Quantity name": "polyreactivity (PSR sort gate)",
    "Measured": "low polyreactivity"
  },
  {
    "Biosequence": "QVQLVESGGGLVQAGGSLRLSCAASGRIFWSYAMGWYRQAPGKERELVAAISYSGGGTYYADSVKGRFTISRDNAKNTVYLQMNSLKPEDTAVYYCAAETYYAPYDYWGQGTQVTVSS",
    "Quantity name": "polyreactivity (PSR sort gate)",
    "Measured": "high polyreactivity"
  },
  {
    "Biosequence": "QVQLVESGGGLVQAGGSLRLSCAASGSTFPSYAMGWYRQAPGKERELVAVITSGGRTYYADSVKGRFTISRDNAKNTVYLQMNSLKPEDTAVYYCAARGHRGYQGYDYWGQGTPVTVSS",
    "Quantity name": "polyreactivity (PSR sort gate)",
    "Measured": "high polyreactivity"
  },
  {
    "Biosequence": "QVQLVESGGGLVQAGGSLRLSCAASGIIFGSNAMGWYRQAPGKERELVAAITSGGNTYYADSVKGRFTISRDNAKNTVYLQMNSLKPEDTAVYYCAARRPRRYGYWGQGTQVTVSS",
    "Quantity name": "polyreactivity (PSR sort gate)",
    "Measured": "high polyreactivity"
  },
  {
    "Biosequence": "QVQLVESGGGLVQAGGSLRLSCAASGSICGKNGMGWYRQAPGKERELVAAITSGGGNTYYADSVKGRFTISRDNAKNTVYLQMNSLKPEDTAVDYCAKGYRAYYWGFNYWGQGTQVTVSS",
    "Quantity name": "polyreactivity (PSR sort gate)",
    "Measured": "high polyreactivity"
  },
  {
    "Biosequence": "QVQLVESGGGLVQAGGSLRLISAASGITFDYYAIGWSRQAPGKERELVAAITNDGRTYYADSVKGRFTISRDNAKNTVYLQMNSLKPEDTAVYYCARLTFREYDYWGQGTQVTVSS",
    "Quantity name": "polyreactivity (PSR sort gate)",
    "Measured": "low polyreactivity"
  }
]

---

assay: yeast display, Sf9 membrane polyspecificity reagent, FACS + sequencing; frameworks hold sequencing errors

[
  {
    "Biosequence": "QVHLVESGGGLVQAGGSLRLSCAASGSTFYENAMGWYIQAPGKERELVAGISRGGGSTYYADSVKGRFTISRDNAKNTVYLQMNSLKPEDSAVYYCAAGSRVQGGYWGQGTQVTVSS",
    "polyreactivity (PSR sort gate)": "low polyreactivity"
  },
  {
    "Biosequence": "QVQLLESVGGLVQAGGSLRLSCDASGYTYCGYAMGSYRQAPGKERELVAAISRSGGSTYYADTVKGRFTISRDHAKNTVYLQMNSLKPEDTAVYYCNARTEDYDGANNYWGHGTQVTVSS",
    "polyreactivity (PSR sort gate)": "low polyreactivity"
  },
  {
    "Biosequence": "QVQLVESGGGLVQAGGSLRLICDASGSTFGYYAIGGYRQAPGKERELVAVINKSGGRTYYADSVKGRFTISRDNAKNTVYLQMNSLKPEDTAVYYCATRVTSTRHDYWGQGTQVTVSS",
    "polyreactivity (PSR sort gate)": "high polyreactivity"
  },
  {
    "Biosequence": "QVQLVESGGGLVQAGGSLRLSCAASGIIFADYAMGWSRQAPGKERELVAAISSGDSTYYADSVKGRFTMSLDNAKNTVYLQMNSLKPEDTAVYYSAARLFRNKYRIAKMNYWGQGTQVTVSS",
    "polyreactivity (PSR sort gate)": "high polyreactivity"
  },
  {
    "Biosequence": "QVQLVESGGGLVQTGGSLRLSCAASGFIFGPYVMGWYRQAPRKERELFAAISSDGSTTYADSVKGRFTISRDNEKNTVYLQMNSLKPEDTAVYYFAAEDQQNGYDYWGQGTQVTVSS",
    "polyreactivity (PSR sort gate)": "low polyreactivity"
  },
  {
    "Biosequence": "QVQLVESGGGLVQAGGSLRLSCAASGRIFVYNAMGWYRQAPGKERELVAAISRSGSSTYYADSVKGRFTISRDNAKNTVYLQMNSLKPEDTAVYYCNAVLSRWTQSGKYRYRYFGFEYWGQGTQVTVSS",
    "polyreactivity (PSR sort gate)": "high polyreactivity"
  },
  {
    "Biosequence": "QVQLVESGGGLVQAGGSLRLSCAASGRTFTYYAMGWYRQAPGKERELVAAISNGGRTYYADSVKGRFTISRDNAKNTVYLQMNSLKPEDTAVYYSAAYLSPKGRGFGSWGQGTQVTVSS",
    "polyreactivity (PSR sort gate)": "high polyreactivity"
  },
  {
    "Biosequence": "QVQLVESGGGLVQAGGSLRLSCAASGRIFYRYGMGWYRQAPGKERELVASITRGGSTYYADSVKGRFTISRDNAKNTVYLQMNSLKPEDTAVYYCATKSSAGYDYWGQGTQVTVSS",
    "polyreactivity (PSR sort gate)": "low polyreactivity"
  },
  {
    "Biosequence": "QVQLAESGGCLVQAGGSLRLSCAASGIIFYFYAMGWYRPAPGKERELVAAISGTGGRTYYADSVKGRFTISRDNAKNTVSLQMNSLKPDDTAVYYCNADDTPVPSIRFDYWGQGTQVTVSS",
    "polyreactivity (PSR sort gate)": "low polyreactivity"
  },
  {
    "Biosequence": "QVQLVESGGGLVQAGGSLRLSCAASGSTFNGNAMGWYRQAPGKERELVARISFDGTSTYYADSVKGRFTISRDNAKNTVYLQMNSLKPEDTAVDYCNVLFPRDHGFPGYGYWGQGTQVTVSS",
    "polyreactivity (PSR sort gate)": "low polyreactivity"
  },
  {
    "Biosequence": "QVQLVESGGGLVQAGGSLRLSCAASGSIFYPNAMGWYRQAPGKERELVAAITTGGSTNYADSVKGRFTISRDNAKNTVYLQMNSLKPEDTAVYYCNARHRYHSYTQPRWKYDYWGQGTQVTVSS",
    "polyreactivity (PSR sort gate)": "low polyreactivity"
  }
]
